Sourced from patent US20070117743A1

In this section we review reported CC50 values for a set of compounds.
# Tested on: HeLa-APL
# PROTOCOL_DESCRIPTION: SRB colorimetric assay of cell growth and viability, HeLa-APL
# Assay type: cell-based, human
# CONDITION_INFO: 48 hours exposure; read-out: LC50 HELA-APL
Where a SMILES comes first, the peptide text is derived from it. Bridges are numbered along the chain shown (N, C = ends). [ ]: non-standard residue; d: D form. The star is where a group is joined. d(aIle) = CC[C@H](C)[C@@H](N)C(=O)O; d(aThr) = C[C@@H](O)[C@@H](N)C(=O)O; hCha = N[C@@H](CCC1CCCCC1)C(=O)O; Hexanoyl(5-Me) = CC(C)CCCC(=O)*; Orn = NCCC[C@H](N)C(=O)O; Dhb = C/C=C(\N)C(=O)O
Give the number; µM is assumed, so skip it.

Consider the worked cases shown below.
stdin: So what's the measured CC50 for this one? C/C=C1\NC(=O)[C@H](Cc2ccccc2)NC(=O)[C@@H](C(C)C)NC(=O)[C@@H]([C@@H](C)CC)NC(=O)[C@H](NC(=O)[C@H](NC(=O)[C@H](CCCN)NC(=O)[C@H]2CCCN2C(=O)[C@H](NC(=O)[C@H](Cc2ccccc2)NC(=O)[C@@H](NC(=O)[C@H](NC(=O)CCCC(C)C)C(C)C)[C@@H](C)O)C(C)C)[C@@H](C)CC)[C@@H](C)OC(=O)[C@H](C(C)C)NC1=O [Compound 43, [Phe^11]-KF] ({Hexanoyl(5-Me)}-[dV]TF[dV][dP][Orn][d(aIle)][d(aThr)][d(aIle)][dV]F[Dhb]V; ester 8-C)
stdout: 3.93

stdin: Request: C/C=C1\NC(=O)[C@H](Cc2ccccc2)NC(=O)[C@@H](C(C)C)NC(=O)[C@@H](C(C)C)NC(=O)[C@H](NC(=O)[C@H](NC(=O)[C@H](CCCN)NC(=O)[C@H]2CCCN2C(=O)[C@H](NC(=O)[C@@H](NC(=O)[C@@H](NC(=O)[C@H](NC(=O)CCCC(C)C)C(C)C)[C@@H](C)O)C(C)C)C(C)C)C(C)C)[C@@H](C)OC(=O)[C@H](C(C)C)NC1=O [Compound 12, [D-Val^5, D-Val^7]-KF] ({Hexanoyl(5-Me)}-[dV]TV[dV][dP][Orn][dV][d(aThr)][dV][dV]F[Dhb]V; ester 8-C)
stdout: 6.9

---
stdin: Any idea what CC50 was measured for C/C=C1\NC(=O)[C@H](Cc2ccccc2)NC(=O)[C@@H](C(C)C)NC(=O)[C@@H]([C@@H](C)CC)NC(=O)[C@H](NC(=O)[C@H](NC(=O)[C@H](CCCN)NC(=O)[C@H]2CCCN2C(=O)[C@H](NC(=O)[C@H](CCC2CCCCC2)NC(=O)[C@@H](NC(=O)[C@H](NC(=O)CCCC(C)C)C(C)C)[C@@H](C)O)C(C)C)[C@@H](C)CC)[C@@H](C)OC(=O)[C@H](C(C)C)NC1=O [Compound 9, [hCh^11]-KF] ({Hexanoyl(5-Me)}-[dV]T[hCha][dV][dP][Orn][d(aIle)][d(aThr)][d(aIle)][dV]F[Dhb]V; ester 8-C) ?
stdout: 2.75

* * *

# Tested on: A-549
# PROTOCOL_DESCRIPTION: SRB colorimetric assay of cell growth and viability, A-549
# Type: cell-based, human
# CONDITION_INFO: A-549; 48 hours exposure; read-out: LC50 A-549
Where a SMILES comes first, the peptide text is derived from it. Bridges are numbered along the chain shown (N, C = ends). [ ]: non-standard residue; d: D form. The star is where a group is joined. d(aIle) = CC[C@H](C)[C@@H](N)C(=O)O; d(aThr) = C[C@@H](O)[C@@H](N)C(=O)O; Hexanoyl(5-Me) = CC(C)CCCC(=O)*; Orn = NCCC[C@H](N)C(=O)O; Dhb = C/C=C(\N)C(=O)O
Recorded log10(CC50), one value per entry.
// do not treat as linear: log10 of CC50, unit nM

stdin: Give the reported log10(CC50) for C/C=C1\NC(=O)[C@H](Cc2ccccc2)NC(=O)[C@@H](C(C)C)NC(=O)[C@@H]([C@@H](C)CC)NC(=O)[C@H](NC(=O)[C@H](NC(=O)[C@H](CCCN)NC(=O)[C@H]2CCCN2C(=O)[C@H](NC(=O)[C@@H](NC(=O)[C@H](CCC(=O)O)NC(=O)[C@H](NC(=O)CCCC(C)C)C(C)C)C(C)C)C(C)C)[C@@H](C)CC)[C@@H](C)OC(=O)[C@H](C(C)C)NC1=O [Compound 115, [Glu^12]-KF] ({Hexanoyl(5-Me)}-[dV]EV[dV][dP][Orn][d(aIle)][d(aThr)][d(aIle)][dV]F[Dhb]V; ester 8-C) (system: A-549).
stdout: 3.82

stdin: Note, next up: C/C=C1\NC(=O)[C@H](Cc2ccccc2Cl)NC(=O)[C@@H](C(C)C)NC(=O)[C@@H]([C@@H](C)CC)NC(=O)[C@H](NC(=O)[C@H](NC(=O)[C@H](CCCN)NC(=O)[C@H]2CCCN2C(=O)[C@H](NC(=O)[C@@H](NC(=O)[C@@H](NC(=O)[C@H](NC(=O)CCCC(C)C)C(C)C)[C@@H](C)O)C(C)C)C(C)C)[C@@H](C)CC)[C@@H](C)OC(=O)[C@H](C(C)C)NC1=O [Compound 81, [Phe(2-Cl)^3]-KF]
stdout: 3.20
